- target or test system: Active Human ERK2 (hERK2) (Homo sapiens (Human), UniProt P28482)
- Sequence (P28482 whole entry): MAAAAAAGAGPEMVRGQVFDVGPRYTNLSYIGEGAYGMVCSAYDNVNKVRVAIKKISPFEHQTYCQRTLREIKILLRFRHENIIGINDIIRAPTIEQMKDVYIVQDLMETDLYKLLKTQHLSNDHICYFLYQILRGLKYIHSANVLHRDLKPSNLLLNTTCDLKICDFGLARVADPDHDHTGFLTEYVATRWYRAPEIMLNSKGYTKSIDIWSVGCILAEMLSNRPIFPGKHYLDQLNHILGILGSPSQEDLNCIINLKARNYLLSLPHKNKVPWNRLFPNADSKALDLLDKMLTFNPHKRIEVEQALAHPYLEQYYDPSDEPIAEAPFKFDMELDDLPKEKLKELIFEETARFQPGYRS
- assay info: Active Human ERK2 (hERK2) Activity Assay (IMAP-FP)
- Assay type: biochemical
- conditions: phosphorylated active hERK2, 30 μM ATP; average; read-out: ERK 2 Human average IC50
- Experimental: Assays Active Human ERK2 (hERK2) Activity Assay: Activated ERK2 activity was determined in an IMAP-FP assay (Molecular Devices). […] The final reaction in each well of 25 μL consists of 0.5 nM hERK2, 900 nM unlabeled peptide, 80 nM labeled-peptide, and 30 μM ATP. […] Plates were read on EnVision reader after 60 minutes binding equilibration using Fluorescence Polarization protocol (Perkin Elmer).
measured endpoint: pIC50
Lab note: report pIC50 as minus log10 of the concentration in molar units, number only.

Field: example entries. Status: answers known.
COCCNC(=O)Nc1cc2[nH]nc(-c3ccnc(C4CC4)c3)c2cn1 [Example 629] :: 8.82
COC[C@H](Cc1ccccc1)NC(=O)Nc1cc2[nH]nc(-c3ccnc(C)c3)c2cn1 [Example 494] :: 8.36
Cc1cc(-c2n[nH]c3cc(NC(=O)NC4(c5ccncc5)CCC4)ncc23)ccn1 [Example 352] :: 7.52

Next compound, pIC50 to be filled in.
I have this compound here, Cc1cc(-c2n[nH]c3cc(NC(=O)NC(C)c4cscn4)ncc23)ccn1 (stereo not shown) [Example 496] , and I need its recorded pIC50.
8.85
